Molecular target: Muscarinic acetylcholine receptor M2 (Homo sapiens)
Sequence (P08172 whole entry): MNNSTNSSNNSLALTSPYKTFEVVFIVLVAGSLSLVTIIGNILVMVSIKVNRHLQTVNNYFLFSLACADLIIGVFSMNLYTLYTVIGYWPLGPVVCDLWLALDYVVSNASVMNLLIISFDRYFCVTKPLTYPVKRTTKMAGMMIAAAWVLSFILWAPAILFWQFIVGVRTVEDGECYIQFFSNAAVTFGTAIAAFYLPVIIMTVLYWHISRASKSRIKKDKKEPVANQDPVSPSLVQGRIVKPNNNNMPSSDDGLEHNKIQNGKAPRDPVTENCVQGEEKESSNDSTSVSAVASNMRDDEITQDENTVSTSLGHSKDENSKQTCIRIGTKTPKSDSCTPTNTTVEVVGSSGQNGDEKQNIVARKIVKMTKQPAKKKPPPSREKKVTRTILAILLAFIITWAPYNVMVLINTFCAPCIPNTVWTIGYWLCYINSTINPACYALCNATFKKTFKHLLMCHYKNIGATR
Assay: Antagonist activity at human muscarinic M2 receptor expressed in CHO cells assessed as inhibition of acetylcholine-induced calcium mobilization by FLIPR assay
property.measured: IC50

CC(C)OC(=O)c1ccc(NC(=O)N[C@@H](Cc2ccc(O)cc2)C(=O)N(C)Cc2n(C)cc[n+]2C)cc1 : > 3300 nM
Cc1c[n+]2cc(CNC(=O)[C@H](Cc3ccc(O)cc3)NC(=O)Nc3ccc(C(=O)OC(C)C)cc3)n(C)c2s1 : < 5 nM

Quick check: IC50 on Muscarinic acetylcholine receptor M2 (Homo sapiens), item `Cc1csc2n(C)c(CNC(=O)[C@H](Cc3ccc(O)cc3)NC(=O)Nc3ccc(C(=O)OC(C)C)cc3)c[n+]12` ?
< 5 nM

----------
target: Muscarinic acetylcholine receptor M3 (Homo sapiens, UniProt P20309); assay: Antagonist activity at human muscarinic M3 receptor expressed in CHO cells assessed as inhibition of acetylcholine-induced calcium mobilization by FLIPR assay
Sequence (P20309 whole entry): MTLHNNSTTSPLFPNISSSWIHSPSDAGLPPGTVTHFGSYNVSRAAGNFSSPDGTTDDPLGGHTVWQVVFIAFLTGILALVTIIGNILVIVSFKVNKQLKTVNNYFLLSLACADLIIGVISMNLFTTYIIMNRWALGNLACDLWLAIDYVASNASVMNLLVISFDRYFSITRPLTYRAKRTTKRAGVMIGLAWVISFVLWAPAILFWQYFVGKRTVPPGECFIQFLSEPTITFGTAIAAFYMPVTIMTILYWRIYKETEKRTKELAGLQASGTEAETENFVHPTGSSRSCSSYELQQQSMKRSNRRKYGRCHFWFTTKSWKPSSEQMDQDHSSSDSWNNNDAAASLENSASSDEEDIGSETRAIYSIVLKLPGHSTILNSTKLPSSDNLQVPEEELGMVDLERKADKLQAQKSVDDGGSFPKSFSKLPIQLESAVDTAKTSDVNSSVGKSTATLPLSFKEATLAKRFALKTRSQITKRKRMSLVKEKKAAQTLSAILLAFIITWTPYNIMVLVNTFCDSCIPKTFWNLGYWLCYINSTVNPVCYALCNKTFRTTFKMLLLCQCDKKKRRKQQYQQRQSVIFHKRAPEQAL
pIC50: −log10 of the molar value.
property.measured: pIC50

Completed entries (count: 4):
CC(C)OC(=O)c1ccc(NC(=O)N[C@@H](Cc2ccc(O)cc2)C(=O)N2CC[N+](Cc3ccc(Cl)cc3)(CC3CCc4ccccc4C3)CC2)cc1 (some centres undefined) : > 8.30
Cc1csc2n(C)c(CNC(=O)[C@H](Cc3ccc(O)cc3)NC(=O)Nc3ccc(C(=O)OC(C)C)cc3)c[n+]12 : > 8.30
Cc1csc2n(Cc3ccc(Cl)cc3)c(CNC(=O)[C@H](Cc3ccc(O)cc3)NC(=O)Nc3ccc(C(=O)OC(C)C)cc3)c[n+]12 : > 8.30
CC(C)OC(=O)c1ccc(NC(=O)N[C@@H](Cc2ccc(O)cc2)C(=O)N(C)Cc2n(C)cc[n+]2C)cc1 : < 5.48

Identify the measured pIC50 of `CC(C)OC(=O)c1ccc(NC(=O)N[C@@H](Cc2ccc(O)cc2)C(=O)N(CC[N+](C)(C)C)Cc2ccccc2)cc1` for Muscarinic acetylcholine receptor M3 (Homo sapiens, UniProt P20309).
< 5.48

Give pIC50 (Muscarinic acetylcholine receptor M3 (Homo sapiens, UniProt P20309)) of the following compound: `Cc1c[n+]2cc(CNC(=O)[C@H](Cc3ccc(O)cc3)NC(=O)Nc3ccc(C(=O)OC(C)C)cc3)n(C)c2s1`
> 8.30

----------
molecular target: Muscarinic acetylcholine receptor M1 (Homo sapiens, UniProt P11229); assay: Antagonist activity at human muscarinic M1 receptor expressed in CHO cells assessed as inhibition of acetylcholine-induced calcium mobilization by FLIPR assay
pIC50: −log10 of the molar value.
property.measured: pIC50

Cc1c[n+]2cc(CNC(=O)[C@H](Cc3ccc(O)cc3)NC(=O)Nc3ccc(C(=O)OC(C)C)cc3)n(C)c2s1 : > 8.30

Query: pIC50; subject: `CC(C)OC(=O)c1ccc(NC(=O)N[C@@H](Cc2ccc(O)cc2)C(=O)NCC[N+]2(C)CCCCCC2)cc1`
< 5.48

What does the data say about its pIC50? Entry: `CC(C)OC(=O)c1ccc(NC(=O)N[C@@H](Cc2ccc(O)cc2)C(=O)N(CC[N+](C)(C)C)Cc2ccccc2)cc1`
< 5.48

Returns the measured pIC50 for the input compound. Input: `CC[N+]1(C2CCN(C(=O)[C@H](Cc3ccc(O)cc3)NC(=O)Nc3ccc(C(=O)OC(C)C)cc3)CC2)CCCC1`
< 5.48

----------
Biological target: Muscarinic acetylcholine receptor M1 (Homo sapiens)
Sequence (P11229 whole entry): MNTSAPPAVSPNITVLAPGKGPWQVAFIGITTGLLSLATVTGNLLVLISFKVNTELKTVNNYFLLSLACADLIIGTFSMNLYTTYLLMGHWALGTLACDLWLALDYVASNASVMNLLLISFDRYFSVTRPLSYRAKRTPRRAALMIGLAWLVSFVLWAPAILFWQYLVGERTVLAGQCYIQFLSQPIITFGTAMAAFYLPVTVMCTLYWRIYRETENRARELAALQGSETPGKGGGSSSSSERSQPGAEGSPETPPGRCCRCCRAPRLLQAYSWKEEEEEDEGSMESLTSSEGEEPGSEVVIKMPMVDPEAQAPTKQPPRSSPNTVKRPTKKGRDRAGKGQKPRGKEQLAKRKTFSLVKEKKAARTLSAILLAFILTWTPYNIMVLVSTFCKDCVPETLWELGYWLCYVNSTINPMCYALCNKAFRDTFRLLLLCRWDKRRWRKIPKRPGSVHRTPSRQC
Assay: Antagonist activity at human muscarinic M1 receptor expressed in CHO cells assessed as inhibition of acetylcholine-induced calcium mobilization by FLIPR assay
pIC50: −log10 of the molar value.
property.measured: pIC50

CC(C)OC(=O)c1ccc(NC(=O)N[C@@H](Cc2ccc(O)cc2)C(=O)N(C)Cc2n(C)cc[n+]2Cc2ccc(Cl)cc2)cc1 : < 5.48
CC(C)OC(=O)c1ccc(NC(=O)N[C@@H](Cc2ccc(O)cc2)C(=O)N2CC[N+](C)(Cc3ccc4c(c3)OCO4)CC2)cc1 : < 5.48
CC(C)OC(=O)c1ccc(NC(=O)N[C@@H](Cc2ccc(O)cc2)C(=O)NCC[N+](C)(C(C)C)C(C)C)cc1 : < 5.48
CC(C)OC(=O)c1ccc(NC(=O)N[C@@H](Cc2ccc(O)cc2)C(=O)NCCC[N+](C)(C)Cc2ccc(Cl)cc2)cc1 : 6.12
Cc1csc2n(C)c(CNC(=O)[C@H](Cc3ccc(O)cc3)NC(=O)Nc3ccc(C(=O)OC(C)C)cc3)c[n+]12 : > 8.30
CC(C)OC(=O)c1ccc(NC(=O)N[C@@H](Cc2ccc(O)cc2)C(=O)N(C)Cc2n(C)cc[n+]2C)cc1 : < 5.48

Form field - read-out: pIC50; system: Muscarinic acetylcholine receptor M1 (Homo sapiens); submitted item: `Cc1csc2n(Cc3ccc(Cl)cc3)c(CNC(=O)[C@H](Cc3ccc(O)cc3)NC(=O)Nc3ccc(C(=O)OC(C)C)cc3)c[n+]12`
> 8.30

----------
target: UniProt:P20309; assay: Antagonist activity at human muscarinic M3 receptor expressed in CHO cells assessed as inhibition of acetylcholine-induced calcium mobilization by FLIPR assay
pIC50: −log10 of the molar value.
property.measured: pIC50

Example results:
CC(C)OC(=O)c1ccc(NC(=O)N[C@@H](Cc2ccc(O)cc2)C(=O)N2CC[N+](C)(CCc3ccccc3)CC2)cc1 : > 8.30
CC(C)OC(=O)c1ccc(NC(=O)N[C@@H](Cc2ccc(O)cc2)C(=O)N2CC[N+](Cc3ccc(Cl)cc3)(CC3CCCCC3)CC2)cc1 : > 8.30

Here's the next entry for you.
Reported pIC50 for `CC(C)OC(=O)c1ccc(NC(=O)N[C@@H](Cc2ccc(O)cc2)C(=O)NCC(C)(C)C[N+](C)(C)Cc2ccc(Cl)cc2)cc1` : what is it?
> 8.30
